Target Of Assay: T1, 5A
T1 construct: also called HLA-A2 / point-mutant NY-ESO peptide 5A complex on T2 cells
Assay Name: flow cytometry on peptide-pulsed T2 cells, scFv 100 nM
Recorded Metric: standardized gMFI
// print number alone

Please review the entries below; each comes with its answer.
NYA-0001 (scFv, also called NYA-0001 tag adduct; NY-R119 expressed in a cultured mammalian cell) scFv: GEVQLVESGGGVVQPGRSLTPSCSASGFSIRSYDIHWVRQAPGKGLEWVATISYDGSQKYFADSVKGRFTIFRDESENMVYLQMSGLRVEDTAVYHCARGSSGHYEAFDIWGQGTMVTVSSGGGGSGGGGSGGGGSQSVLTQPPSVSAAPGQKVTISCSGSSSNIGNNYVSWYQQLPGTAPKLLIYDNNKRPSGIPDRFSGSKSGTSATLGITGLQTGDEADYYCGTWDSSLSAPWVFGGGTKVTVLGAAAGAGGDYKDDDDKGAAAHHHHHH : 0.78
NYC-0003 (scFv, not shown: small tags and cut ends, also called 3M4E5 scFv; NYC-0003 tag adduct) scFv: EVQLLESGGGLVQPGGSLRLSCAASGFTFSTYQMSWVRQAPGKGLEWVSGIVSSGGSTAYADSVKGRFTISRDNSKNTLYLQMNSLRAEDTAVYYCAGELLPYYGMDVWGQGTTVTVSSGGGGSGGGGSGGGGSQSELTQPRSVSGSPGQSVTISCTGTSRDVGGYNYVSWYQQHPGKAPKLIIHDVIERSSGVPDRFSGSKSGNTASLTISGLQAEDEADYYCWSFAGSYYVFGTGTDVTVL : 0.69

What standardized gMFI value was documented for this binder, NYA-2060 (scFv, also called NYA-2060 tag adduct) scFv: GEVQLVESGGGLVQPGGSLRLSCAASGFSIRSYDIHWVRQAPGKGLEWVATISYDGSQKYYADSVKGRFTISRDESKNTLYLQMNSLRAEDTAVYHCARGSSGHYEAFDIWGQGTLVTVSSGGGGSGGGGSGGGGSQSVLTQPPSVSAAPGQKVTISCSGSSSNIGNWYVSWYQQLPGTAPKLLIYDNNKRPSGIPDRFSGSKSGTSATLGITGLQTGDEADYYCGTWDSSLSAPWVFGGGTKVTVLGAAAGAGGDYKDDDDKGAAAHHHHHH ?
0.7
